- Test system: Staphylococcus aureus
- PROTOCOL: Antibacterial activity against Staphylococcus aureus ATCC 25923 after 24 hrs
- Assay type: functional
- CONDITION_DESCRIPTION: ATCC 25923, 24 h
MEASURE: MIC (µg/mL)
Respond numerically; units are µg/mL and should not be typed.

Reference set, count: 2
O=C(CC(=O)c1ccccc1Cl)c1ccc(O[C@@H]2O[C@H](CO)[C@@H](O)[C@H](O)[C@H]2O)cc1O : 150
Cc1ccc(C(=O)CC(=O)c2ccc(O[C@@H]3O[C@H](CO)[C@@H](O)[C@H](O)[C@H]3O)cc2O)cc1 : 625

# evaluate next
Prompt: Report value: MIC, system: Staphylococcus aureus, compound: O=C(CC(=O)c1ccc(O[C@@H]2O[C@H](CO)[C@@H](O)[C@H](O)[C@H]2O)cc1O)c1cccc(Cl)c1
Response: 150
